targetUnderTest: BChE from equine serum (EqBChE) (Equus caballus, UniProt P81908)
Construct: BChE from equine serum; purchased Merck (Prague, Czech Republic); host or cells: equine serum (natural source)
Sequence (P81908 whole entry): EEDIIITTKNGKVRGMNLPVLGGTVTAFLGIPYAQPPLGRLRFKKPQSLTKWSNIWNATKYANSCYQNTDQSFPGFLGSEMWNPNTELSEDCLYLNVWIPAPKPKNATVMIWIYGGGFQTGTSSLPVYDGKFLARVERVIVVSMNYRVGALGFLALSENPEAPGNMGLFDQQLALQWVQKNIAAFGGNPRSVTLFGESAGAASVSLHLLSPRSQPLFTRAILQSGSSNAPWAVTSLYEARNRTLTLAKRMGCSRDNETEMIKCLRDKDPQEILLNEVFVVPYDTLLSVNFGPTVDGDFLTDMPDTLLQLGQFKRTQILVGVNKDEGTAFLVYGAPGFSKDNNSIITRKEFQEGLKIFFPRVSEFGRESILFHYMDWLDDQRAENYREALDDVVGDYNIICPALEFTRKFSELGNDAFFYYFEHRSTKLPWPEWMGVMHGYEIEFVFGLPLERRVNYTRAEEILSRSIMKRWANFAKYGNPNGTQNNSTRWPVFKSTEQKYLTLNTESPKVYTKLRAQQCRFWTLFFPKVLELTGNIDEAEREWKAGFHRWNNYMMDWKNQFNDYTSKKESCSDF
measurementDescription: biochemical
Assay type: biochemical
reportedConditions: equine serum BChE; mean ± SD from three independent experiments
attributeMeasured: log10 of IC50 (log10 of the value in µM)
// units: µM (pre-log); metric: IC50; scale: log10

A selection of reference data follows.
>>> print(df.to_string())
                                   molecule  numericresult
0     CNC(=O)NNC(=O)c1ccc(C(C)(C)C)cc1 [1q]           2.45
1  CCCCCCCCCCCCCNC(=O)NNC(=O)c1ccc(Cl)cc1 [1f]           1.95
2       CNC(=O)NNC(=O)c1ccccc1C(F)(F)F [2c]           2.47
3   CNC(=O)NNC(=O)c1ccccc1[N+](=O)[O-] [2g]           2.28

Tell me log10 of IC50 of CCCCCCCCCCCCCNC(=O)NNC(=O)c1ccc(I)cc1 [1j] when tested on BChE from equine serum (EqBChE) (Equus caballus, UniProt P81908).
2.28

Tell me log10 of IC50 of CCCCCCCCCCCCCNC(=O)NNC(=O)c1ccc(C(C)(C)C)cc1 [1r] when tested on BChE from equine serum (EqBChE) (Equus caballus, UniProt P81908).
1.76

Tell me log10 of IC50 of CCCCCCCCCCCCCNC(=O)NNC(=O)c1cccc(C(F)(F)F)c1 [2b] when tested on BChE from equine serum (EqBChE) (Equus caballus, UniProt P81908).
2.47

Tell me log10 of IC50 of CCCCCCCCCCCCCNC(=O)NNS(=O)(=O)c1ccc(C(F)(F)F)cc1 [3d] when tested on BChE from equine serum (EqBChE) (Equus caballus, UniProt P81908).
2.53

Tell me log10 of IC50 of CNC(=O)NNC(=O)c1cccc(Br)c1 [2i] when tested on BChE from equine serum (EqBChE) (Equus caballus, UniProt P81908).
2.55

Tell me log10 of IC50 of CCCCCCCCCCCCCNC(=O)NNC(=O)c1ccc(-c2ccccc2)cc1 [1t] when tested on BChE from equine serum (EqBChE) (Equus caballus, UniProt P81908).
1.51

Tell me log10 of IC50 of CNC(=O)NNS(=O)(=O)c1ccc(C(F)(F)F)cc1 [3c] when tested on BChE from equine serum (EqBChE) (Equus caballus, UniProt P81908).
2.63

Tell me log10 of IC50 of CCCCCCCCCCCCCNC(=O)NNC(=O)c1ccc([N+](=O)[O-])cc1 [1l] when tested on BChE from equine serum (EqBChE) (Equus caballus, UniProt P81908).
1.35

Tell me log10 of IC50 of CNC(=O)NNC(=O)c1ccc(OC(F)(F)F)cc1 [1a] when tested on BChE from equine serum (EqBChE) (Equus caballus, UniProt P81908).
2.31

Tell me log10 of IC50 of CCCCCCCCCCCCCNC(=O)NNC(=O)c1ccc(F)cc1 [1d] when tested on BChE from equine serum (EqBChE) (Equus caballus, UniProt P81908).
2.68

Tell me log10 of IC50 of CCCCCCCCCCCCCNC(=O)NNC(=O)c1ccc(O)cc1 [1bb] when tested on BChE from equine serum (EqBChE) (Equus caballus, UniProt P81908).
2.17

Tell me log10 of IC50 of CNC(=O)NNC(=O)c1ccc(Cl)cc1 [1e] when tested on BChE from equine serum (EqBChE) (Equus caballus, UniProt P81908).
2.50

Tell me log10 of IC50 of CCCCCCCCCCCCCNC(=O)NNC(=O)c1ccc(OC(F)(F)F)cc1 [1b] when tested on BChE from equine serum (EqBChE) (Equus caballus, UniProt P81908).
2.10

Tell me log10 of IC50 of CCCCCCCCCCCCCNC(=O)NNC(=O)c1ccccc1 [1ff] when tested on BChE from equine serum (EqBChE) (Equus caballus, UniProt P81908).
2.37

Tell me log10 of IC50 of CCCCCCCCCCCCCNC(=O)NNC(=O)c1ccc(N(C)C)cc1 [1z] when tested on BChE from equine serum (EqBChE) (Equus caballus, UniProt P81908).
2.27

Tell me log10 of IC50 of CNC(=O)NNC(=O)Cc1ccc(C(F)(F)F)cc1 [3a] when tested on BChE from equine serum (EqBChE) (Equus caballus, UniProt P81908).
2.12

Tell me log10 of IC50 of CCCCCCCCCCCCCNC(=O)NNC(=O)Cc1ccc(C(F)(F)F)cc1 [3b] when tested on BChE from equine serum (EqBChE) (Equus caballus, UniProt P81908).
2.47

Tell me log10 of IC50 of CCCCCCCCCCCCCNC(=O)NNC(=O)c1ccc(Oc2ccccc2)cc1 [1x] when tested on BChE from equine serum (EqBChE) (Equus caballus, UniProt P81908).
2.57

Tell me log10 of IC50 of CNC(=O)NNC(=O)c1ccc(Oc2ccccc2)cc1 [1w] when tested on BChE from equine serum (EqBChE) (Equus caballus, UniProt P81908).
2.48

Tell me log10 of IC50 of CCCCCCCCCCCCCNC(=O)NNC(=O)c1ccc(Br)cc1 [1h] when tested on BChE from equine serum (EqBChE) (Equus caballus, UniProt P81908).
1.43

Tell me log10 of IC50 of CNC(=O)NNC(=O)c1ccc(S(N)(=O)=O)cc1 [1cc] when tested on BChE from equine serum (EqBChE) (Equus caballus, UniProt P81908).
2.40

---

targetUnderTest: AChE (obtained from electric eel; EeAChE) (Electrophorus electricus, UniProt O42275)
Construct: AChE (obtained from electric eel); purchased Merck (Prague, Czech Republic); host or cells: electric eel (natural source)
Sequence (O42275 24-633): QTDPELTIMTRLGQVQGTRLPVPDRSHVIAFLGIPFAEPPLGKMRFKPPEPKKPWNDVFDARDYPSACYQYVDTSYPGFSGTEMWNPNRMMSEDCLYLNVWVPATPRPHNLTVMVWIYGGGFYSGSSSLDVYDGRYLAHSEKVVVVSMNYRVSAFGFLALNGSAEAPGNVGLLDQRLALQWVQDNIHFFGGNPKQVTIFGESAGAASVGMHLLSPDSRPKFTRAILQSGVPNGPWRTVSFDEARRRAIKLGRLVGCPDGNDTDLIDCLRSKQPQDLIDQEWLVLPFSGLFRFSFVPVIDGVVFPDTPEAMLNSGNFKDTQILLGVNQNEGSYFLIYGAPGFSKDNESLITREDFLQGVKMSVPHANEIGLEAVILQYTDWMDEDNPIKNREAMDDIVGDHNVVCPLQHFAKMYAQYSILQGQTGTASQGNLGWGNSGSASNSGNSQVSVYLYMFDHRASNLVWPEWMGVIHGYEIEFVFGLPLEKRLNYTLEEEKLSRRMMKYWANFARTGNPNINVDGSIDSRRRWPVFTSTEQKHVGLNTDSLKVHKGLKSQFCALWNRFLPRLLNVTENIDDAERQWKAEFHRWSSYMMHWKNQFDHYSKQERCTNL
measurementDescription: biochemical
Assay type: biochemical
reportedConditions: SI = ratio of IC50 for BChE/IC50 for AChE; above 1 = stronger inhibition of AChE
# Selectivity BChE/AChE >= 4 gives Y, anything below gives N

Reference set (3 entries):
>>> df
                                   compound  classlabel
0           CNC(=O)NNC(=O)c1cccc(Br)c1 [2i]           Y
1  CCCCCCCCCCCCCNC(=O)NNC(=O)c1ccc(Br)cc1 [1h]           N
2             CNC(=O)NNC(=O)c1ccccc1Br [2k]           Y

Hi, just wondering whether CNC(=O)NNC(=O)c1ccc(C#N)cc1 [1m] shows Selectivity BChE/AChE of 4 or higher.
Y

Hi, just wondering whether CNC(=O)NNC(=O)Cc1ccc(C(F)(F)F)cc1 [3a] shows Selectivity BChE/AChE of 4 or higher.
N

Hi, just wondering whether CNC(=O)NNC(=O)c1ccc([N+](=O)[O-])cc1 [1k] shows Selectivity BChE/AChE of 4 or higher.
N

---

targetUnderTest: AChE (obtained from electric eel; EeAChE) (Electrophorus electricus, UniProt O42275)
Construct: AChE (obtained from electric eel); purchased Merck (Prague, Czech Republic); host or cells: electric eel (natural source)
measurementDescription: biochemical
Type: biochemical
reportedConditions: electric eel AChE; mean ± SD from three independent experiments
Reported values of pIC50 for individual entries
Please express pIC50 as -log10 of the molar concentration.

A selection of reference data follows.
                             smilesentry  numericresult
0       CNC(=O)NNC(=O)c1cccc(C(F)(F)F)c1           4.21
1  CCCCCCCCCCCCCNC(=O)NNC(=O)c1ccc(O)cc1           4.13
2   CNC(=O)NNC(=O)c1ccc([N+](=O)[O-])cc1           4.27
3              CNC(=O)NNC(=O)c1ccc(I)cc1           4.13
4              CNC(=O)NNC(=O)c1ccc(C)cc1           4.21

State its pIC50 for this compound: CCCCCCCCCCCCCNC(=O)NNC(=O)c1ccc(I)cc1
4.10

State its pIC50 for this compound: CNC(=O)NNC(=O)c1ccccc1Br
4.23

State its pIC50 for this compound: CCCCCCCCCCCCCNC(=O)NNC(=O)c1ccc([N+](=O)[O-])cc1
4.27

State its pIC50 for this compound: CCCCCCCCCCCCCNC(=O)NNC(=O)c1ccc(N(C)C)cc1
4.06

State its pIC50 for this compound: CNC(=O)NNC(=O)c1ccc(C(C)(C)C)cc1
4.22

State its pIC50 for this compound: CNC(=O)NNC(=O)c1ccc(N(C)C)cc1
4.15

State its pIC50 for this compound: CNC(=O)NNC(=O)c1cccc([N+](=O)[O-])c1
4.17
